Reported z-score is given for each of the following molecules.
- experiment summary: PSAC antagonists in infected red cells, primary screen, cell-based, P. falciparum Indochina, OD700, 18 h (AID 1157)
- condition summary: P. falciparum Indochina infected erythrocytes, osmotic lysis OD700, 18 h; higher = more signal, called active from +8 up or from −8 down
Reply: number alone, nothing else.

molecule | endpoint value
COc1cccc([C@@H]2[C@@H](C)CC[C@H]3C(=O)N(C)[C@@H](C(C)C)C(=O)N23)c1 | -0.0201

Qu. Given CN1C2C=C(c3ccc(CO)cc3)C(C3C(=O)N(C(N)=O)C(=O)C32)C1c1cccs1 (configuration not stated) , state its recorded z-score.
Ans. -1.37

###

Reported composite z-score is given for each of the following compounds.
- experiment summary: small-molecule microarray binders of probe aWnt5a, primary screen, biochemical, biotinylated probe, 635/667 nm fluorescence (AID 1113);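 also: score merges 667 nm fluorescence intensity with signal-to-noise per printed feature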
- condition summary: higher = more signal
Reply: number alone, nothing else.

compound | composite z-score
C=CC(=O)O[C@@H](Cc1ccccc1)[C@H]1C2C=CCCC=C2CN1Cc1cccc(Cl)c1 (some centres not stated) | -0.148

Alright, here's another compound for you.
Qu. Given Cc1ccc(S[C@]2(C(=O)NCCCN(C)C)CC(=O)N(C3CCCCC3)[C@@H]2c2ccc(CO)cc2I)cc1 , state its recorded composite z-score.
Ans. -0.0455

###

- experiment summary: basal S. cerevisiae growth modulation, no modifier, primary screen, OD600, strain BY4716, 24 h, basal condition (AID 1173)
- condition summary: OD600, 24 h, called active from +8 up or from −8 down
The source made the active and inactive calls.
Response enum: YES for active, NO for inactive

Some solved entries appear below for comparison.
molecule | label class
C=CCC(OC(C)=O)[C@@H]1[C@@H](N(Cc2cccc3ccccc23)C(=O)Cc2ccc(F)cc2)c2cc(OCCCO)ccc2N1C(=O)Cc1ccc2ccccc2c1 (stereo partly drawn) | NO
COc1cccc([C@H]2N[C@H](C(=O)O)CC[C@@H]2C)c1 | NO
C[N+](C)(C)CCCC[C@@H]1NC(=O)[C@H]2C[C@@H](C(=O)NCc3ccc(F)cc3)[C@@H](c3cccc(OCCO)c3)N2C1=O | NO
CC(=O)NCCCC[C@@H]1NC(=O)[C@@H]2C[C@H](C(=O)NCCCCCCN(C)C)[C@H](c3ccc(O)cc3)N2C1=O | NO
[N-]=[N+]=NCc1ccccc1C[C@]1(C(=O)N2CCCCC2)N=C(c2ccc(OCCCO)cc2)O[C@H]1c1ccccc1CN=[N+]=[N-] | NO

Qu. For this molecule, state the assay outcome: Cc1ccc(S[C@]2(C(=O)NCCCN(C)C)CC(=O)N(C3CCCCC3)[C@@H]2c2ccc(CO)cc2I)cc1
Ans. NO

Qu. Item: CC[C@H]1C2=C3C(CC[C@H]4C(OC)OC[C@](C)([C@@H]34)N(C(=O)OC(C)(C)C)C2)C(CO)C1CO (stereo partly drawn)
Ans. NO

Qu. Item: O=C(NCc1ccccc1)[C@@]1(CCS(=O)(=O)c2ccccc2)COC(c2ccc(OCCCO)cc2)=N1
Ans. NO

Qu. Item: CO[C@@H]1COC(=O)[C@H](COCc2ccccc2)NC(=O)CC=C[C@@H](C)[C@H](OC)COC(=O)[C@H](COCc2ccccc2)NC(=O)CC=C[C@H]1C
Ans. NO

Qu. Item: O=C1O[C@H](c2ccccc2)[C@H](c2ccccc2)N2[C@H]1[C@@H](C(=O)NC[C@H](O)c1ccccc1)[C@]1(C(=O)Nc3ccc(C#CC4=CCCCC4)cc31)[C@H]2c1ccc(OCCO)cc1
Ans. NO

Qu. Item: C=CCN1C(=O)[C@@]2(Cc3ccccc3)N=C(c3ccc(OCCCO)cc3)O[C@H]2c2ccccc21
Ans. NO

Qu. Item: CC(C)(C)OC(=O)CC[C@]1(C(=O)NCCN2CCOCC2)N=C(c2ccc(OCCCO)cc2)O[C@H]1c1ccccc1CN=[N+]=[N-]
Ans. NO

Qu. Item: C[C@@H]1NC(=O)CC=C[C@@H](C)[C@@H]2C=C[C@H](O)[C@@H](COC(=O)[C@H](C)NC(=O)CC=C[C@@H](C)[C@@H]3C=C[C@H](O)[C@@H](COC1=O)O3)O2
Ans. NO

Qu. Item: CCCC=C(CCC)[C@@H](NS(=O)(=O)c1cccc(C(F)(F)F)c1)c1ccc(C(=O)OC)cc1
Ans. NO

Qu. Item: CC(=O)Nc1ccc([C@H]2[C@H](C)CC[C@H]3C(=O)N4[C@@H](CC[C@@H](C)[C@@H]4c4ccc(NC(C)=O)cc4)C(=O)N32)cc1
Ans. NO

Qu. Item: O=C(NCc1ccccc1)c1ccc(Br)cc1[N+](=O)[O-]
Ans. NO

Qu. Item: CC(=O)NCCCC[C@@H]1NC(=O)[C@@H]2C[C@H](C(=O)NCCCCCNC(=O)CS)[C@H](c3ccc(O)cc3)N2C1=O
Ans. NO

Qu. Item: COCCOC(=O)N1C(=O)[C@@]2(c3cc(C#CC4=CCCCC4)ccc31)[C@H](C(=O)NC[C@H](O)c1ccccc1)[C@H]1C(=O)O[C@H](c3ccccc3)[C@H](c3ccccc3)N1[C@@H]2c1ccc(OCCO)cc1
Ans. NO

Qu. Item: CC(C)[Si](OCC[C@H]1O[C@]2(C(=O)N(Cc3ccccc3)c3ccccc32)[C@@H](C)[C@@H]1[Si](C)(C)O)(C(C)C)C(C)C
Ans. NO
